Values compiled from paper PMC12655351.

- Test system: DLD-1
- EXPERIMENTAL DETAILS: MTT assay
- Assay type: cell-based
- TEST CONDITIONS: Homo sapiens; DLD-1, 24 h of treatment
Counter-ions that a name gives are not always drawn.
Could you please report measured log10 IC50 for the items listed next?
log10 IC50, µM

So, O=C(O)C(c1ccccc1)N1C(=O)/C(=C/C=C/c2ccc([N+](=O)[O-])o2)SC1=S (stereo not shown) ? Its log10 IC50 was 1.09

So, CC(C)CC(C(=O)O)N1C(=O)/C(=C/C=C/c2ccc([N+](=O)[O-])o2)SC1=S (stereo not shown) ? Its log10 IC50 was 0.88

So, CCC(C(=O)O)N1C(=O)/C(=C/C=C/c2ccc([N+](=O)[O-])o2)SC1=S (stereo not shown) ? Its log10 IC50 was 0.90

So, O=C(O)CCN1C(=O)/C(=C/C=C/c2ccc([N+](=O)[O-])o2)SC1=S [12b] ? Its log10 IC50 was 0.52

So, CCCCC(C(=O)O)N1C(=O)/C(=C/C=C/c2ccc([N+](=O)[O-])o2)SC1=S (stereo not shown) ? Its log10 IC50 was 0.66

So, CC(C)C(C(=O)O)N1C(=O)/C(=C/C=C/c2ccc([N+](=O)[O-])o2)SC1=S (stereo not shown) ? Its log10 IC50 was 0.59

So, O=C(O)CCCCCN1C(=O)/C(=C/C=C/c2ccc([N+](=O)[O-])o2)SC1=S [14b] ? Its log10 IC50 was 0.26

So, CC(C(=O)O)N1C(=O)/C(=C/C=C/c2ccc([N+](=O)[O-])o2)SC1=S (stereo not shown) ? Its log10 IC50 was 1.00

So, CCC(C)C(C(=O)O)N1C(=O)/C(=C/C=C/c2ccc([N+](=O)[O-])o2)SC1=S (stereo not shown) ? Its log10 IC50 was 0.57

So, COc1cccc2c1C(=O)c1c(O)c3c(c(O)c1C2=O)C[C@@](O)(C(=O)CO)C[C@@H]3O[C@H]1C[C@H](N)[C@H](O)[C@H](C)O1 [DOX, Doxorubicin hydrochloride, reference compound] ? Its log10 IC50 was 0.45

So, O=C(O)C(Cc1ccc(O)cc1)N1C(=O)/C(=C/C=C/c2ccc([N+](=O)[O-])o2)SC1=S (stereo not shown) [11b] ? Its log10 IC50 was 1.31

So, O=C(O)CCCCCCCCCCN1C(=O)/C(=C/C=C/c2ccc([N+](=O)[O-])o2)SC1=S [15b] ? Its log10 IC50 was 0.25

So, O=C(O)CCCN1C(=O)/C(=C/C=C/c2ccc([N+](=O)[O-])o2)SC1=S [13b] ? Its log10 IC50 was 0.50

So, O=C(O)CN1C(=O)/C(=C/C=C/c2ccc([N+](=O)[O-])o2)SC1=S ? Its log10 IC50 was 1.46

So, O=C(O)C(Cc1ccccc1)N1C(=O)/C(=C/C=C/c2ccc([N+](=O)[O-])o2)SC1=S (stereo not shown) [10b] ? Its log10 IC50 was 0.97

So, CCCC(C(=O)O)N1C(=O)/C(=C/C=C/c2ccc([N+](=O)[O-])o2)SC1=S (stereo not shown) ? Its log10 IC50 was 0.88

====

- Test system: MDA-MB-435
- TEST CONDITIONS: human, 48 h
METRIC NAME: CC50 (nM)
Your answer should be a plain number; it is taken to be in nM.

So, O=C(O)CCCCCN1C(=O)/C(=C/C=C/c2ccc([N+](=O)[O-])o2)SC1=S [14b] ? Its CC50 was 2740

====

- Tested on: PC-3
- TEST CONDITIONS: PC-3, 48 h
Could you please report measured TGI for the items listed next?
Your answer should be a plain number; it is taken to be in µM.

So, O=C(O)CCN1C(=O)/C(=C/C=C/c2ccc([N+](=O)[O-])o2)SC1=S [12b] ? Its TGI was 10.6

So, CCCC(C(=O)O)N1C(=O)/C(=C/C=C/c2ccc([N+](=O)[O-])o2)SC1=S (centres unmarked) ? Its TGI was 10.7

So, CC(C)C(C(=O)O)N1C(=O)/C(=C/C=C/c2ccc([N+](=O)[O-])o2)SC1=S (centres unmarked) ? Its TGI was 6.52

So, CCCCC(C(=O)O)N1C(=O)/C(=C/C=C/c2ccc([N+](=O)[O-])o2)SC1=S (centres unmarked) ? Its TGI was 11.3

So, O=C(O)C(c1ccccc1)N1C(=O)/C(=C/C=C/c2ccc([N+](=O)[O-])o2)SC1=S (centres unmarked) ? Its TGI was 29.9

====

- Tested on: HOP-92
- TEST CONDITIONS: human, 48 h
METRIC NAME: CC50 (µM)
Your answer should be a plain number; it is taken to be in µM.

So, O=C(O)CCCCCN1C(=O)/C(=C/C=C/c2ccc([N+](=O)[O-])o2)SC1=S [14b] ? Its CC50 was 5.84

====

- Tested on: MALME-3M
- EXPERIMENTAL DETAILS: NCI-60 SRB screen
- TEST CONDITIONS: read-out: LC50; MALME-3M, 48 h
METRIC NAME: CC50
Include the unit after the number when you answer.

So, O=C(O)CCCCCN1C(=O)/C(=C/C=C/c2ccc([N+](=O)[O-])o2)SC1=S [14b] ? Its CC50 was 2720 nM

====

Could you please report measured CC50 for the items listed next?
- System: NCI-H266
- EXPERIMENTAL DETAILS: NCI-60 SRB screen
- TEST CONDITIONS: Homo sapiens, 48 h, read-out: LC50, NCI-H266, 48 h
Your answer should be a plain number; it is taken to be in µM.

Reported CC50 (NCI-H266) for entry O=C(O)C(c1ccccc1)N1C(=O)/C(=C/C=C/c2ccc([N+](=O)[O-])o2)SC1=S (stereo not shown) is 89.7

Reported CC50 (NCI-H266) for entry O=C(O)CCCN1C(=O)/C(=C/C=C/c2ccc([N+](=O)[O-])o2)SC1=S [13b] is 76.1

Reported CC50 (NCI-H266) for entry O=C(O)CCN1C(=O)/C(=C/C=C/c2ccc([N+](=O)[O-])o2)SC1=S [12b] is 79.7

Reported CC50 (NCI-H266) for entry O=C(O)CCCCCN1C(=O)/C(=C/C=C/c2ccc([N+](=O)[O-])o2)SC1=S [14b] is 90.2

Reported CC50 (NCI-H266) for entry CCCC(C(=O)O)N1C(=O)/C(=C/C=C/c2ccc([N+](=O)[O-])o2)SC1=S (stereo not shown) is 78.9

Reported CC50 (NCI-H266) for entry CC(C)C(C(=O)O)N1C(=O)/C(=C/C=C/c2ccc([N+](=O)[O-])o2)SC1=S (stereo not shown) is 88.8

Reported CC50 (NCI-H266) for entry CCCCC(C(=O)O)N1C(=O)/C(=C/C=C/c2ccc([N+](=O)[O-])o2)SC1=S (stereo not shown) is 76.1

====

- Tested on: A549/ATCC
- EXPERIMENTAL DETAILS: NCI-60 SRB screen
- TEST CONDITIONS: Homo sapiens, A549, 48 h
Could you please report measured GI50 for the items listed next?
Your answer should be a plain number; it is taken to be in nM.

So, O=C(O)CCCN1C(=O)/C(=C/C=C/c2ccc([N+](=O)[O-])o2)SC1=S [13b] ? Its GI50 was 1360

So, CCCCC(C(=O)O)N1C(=O)/C(=C/C=C/c2ccc([N+](=O)[O-])o2)SC1=S (stereo not shown) [6b] ? Its GI50 was 2330

So, CCCC(C(=O)O)N1C(=O)/C(=C/C=C/c2ccc([N+](=O)[O-])o2)SC1=S (stereo not shown) [4b] ? Its GI50 was 2220

So, O=C(O)CCN1C(=O)/C(=C/C=C/c2ccc([N+](=O)[O-])o2)SC1=S [12b] ? Its GI50 was 3210

So, O=C(O)C(c1ccccc1)N1C(=O)/C(=C/C=C/c2ccc([N+](=O)[O-])o2)SC1=S (stereo not shown) [9b] ? Its GI50 was 16800

So, CC(C)C(C(=O)O)N1C(=O)/C(=C/C=C/c2ccc([N+](=O)[O-])o2)SC1=S (stereo not shown) [5b] ? Its GI50 was 1860

So, O=C(O)CCCCCN1C(=O)/C(=C/C=C/c2ccc([N+](=O)[O-])o2)SC1=S [14b] ? Its GI50 was 1620

====

- Test system: OVCAR-4
- EXPERIMENTAL DETAILS: cells
- TEST CONDITIONS: Homo sapiens, OVCAR-4, 48 h, read-out: LC50, OVCAR-4, 48 h
Threshold check on CC50: strictly below 40 µM is fulfilled; on or above 40 µM is not fulfilled.

Ask: Take the compound CCCCC(C(=O)O)N1C(=O)/C(=C/C=C/c2ccc([N+](=O)[O-])o2)SC1=S (stereo not shown) and say whether its CC50 is less than 40 µM.
Reply: not fulfilled

Ask: Take the compound CCCC(C(=O)O)N1C(=O)/C(=C/C=C/c2ccc([N+](=O)[O-])o2)SC1=S (stereo not shown) and say whether its CC50 is less than 40 µM.
Reply: not fulfilled

Ask: Take the compound O=C(O)CCCN1C(=O)/C(=C/C=C/c2ccc([N+](=O)[O-])o2)SC1=S [13b] and say whether its CC50 is less than 40 µM.
Reply: fulfilled

Ask: Take the compound O=C(O)C(c1ccccc1)N1C(=O)/C(=C/C=C/c2ccc([N+](=O)[O-])o2)SC1=S (stereo not shown) and say whether its CC50 is less than 40 µM.
Reply: not fulfilled

Ask: Take the compound O=C(O)CCCCCN1C(=O)/C(=C/C=C/c2ccc([N+](=O)[O-])o2)SC1=S [14b] and say whether its CC50 is less than 40 µM.
Reply: fulfilled

Ask: Take the compound CC(C)C(C(=O)O)N1C(=O)/C(=C/C=C/c2ccc([N+](=O)[O-])o2)SC1=S (stereo not shown) and say whether its CC50 is less than 40 µM.
Reply: fulfilled

Ask: Take the compound O=C(O)CCN1C(=O)/C(=C/C=C/c2ccc([N+](=O)[O-])o2)SC1=S [12b] and say whether its CC50 is less than 40 µM.
Reply: fulfilled
